FYI, the data here is from ChEMBL document CHEMBL3272354.

# Test system: Litomosoides carinii
# PROTOCOL_NOTES: Antifilarial activity against Litomosoides carinii infected in gerbil assessed as microfilaria count at 25, 50, 100 and 200 mg/kg administered on days 0, 1, 2 and 3 respectively measured on day 14 relative to control
# Format: functional
Under this convention, yes denotes Activity strictly below 200% and no denotes Activity at or above 200%.

Solved cases (3 shown):
COMPOUND: CCOC(=O)N[C@H]1CC[C@@H]1NC.Cl
SYSTEM: Litomosoides carinii
QUALITATIVE_LABEL: yes
--
COMPOUND: CCOC(=O)N[C@H]1CC[C@@H]1N(C)C.O=C(O)/C=C\C(=O)O (relative stereo)
SYSTEM: Litomosoides carinii
QUALITATIVE_LABEL: no
--
COMPOUND: CCOC(=O)N[C@H]1CC[C@@H]1NC(=O)OCC (relative stereo)
SYSTEM: Litomosoides carinii
QUALITATIVE_LABEL: no

Input line: Does the reported Activity of the following compound sit strictly below 200%? CCOC(=O)N[C@H]1CC[C@@H]1N.Cl (relative stereo)
Output line: yes

Input line: Does the reported Activity of the following compound sit strictly below 200%? CCOC(=O)N(C)[C@H]1CC[C@@H]1NC.O=C(O)/C=C\C(=O)O (relative stereo)
Output line: yes

Input line: Does the reported Activity of the following compound sit strictly below 200%? CCN(CC)C(=O)N[C@H]1CC[C@@H]1N(C)C.O=C(O)CC(O)(CC(=O)O)C(=O)O (relative stereo)
Output line: yes

Input line: Does the reported Activity of the following compound sit strictly below 200%? CCN(CC)C(=O)N(C)[C@H]1CC[C@@H]1N(C)C.O=C(O)/C=C\C(=O)O (relative stereo)
Output line: yes
